Experiment: Solubility studies of TDL and DPX in nonvolatile solvents and distilled water
Type: physicochemical
Settings: in distilled water; read-out: Solubility of TDL
measured_endpoint: solubility
Kindly report the value followed by its unit.

May I ask what solubility has been recorded for CN1CC(=O)N2[C@H](c3ccc4c(c3)OCO4)c3[nH]c4ccccc4c3C[C@@H]2C1=O [TDL, tadalafil] ?
49 µg/mL

###

Assay: Solubility studies of TDL and DPX in nonvolatile solvents and distilled water
Type: physicochemical
Settings: organic solvent or mixture; in PEG 200; read-out: Solubility of TDL
measured_endpoint: solubility (mg/mL)
// return numeric value only (unit: mg/mL, not printed)

May I ask what solubility has been recorded for "CN1CC(=O)N2[C@H](c3ccc4c(c3)OCO4)c3[nH]c4ccccc4c3C[C@@H]2C1=O" ?
10.1

###

Experiment: Solubility studies of TDL and DPX in nonvolatile solvents and distilled water
Assay type: physicochemical
Details: in distilled water; read-out: Solubility of DPX
measured_endpoint: solubility (mg/mL)
// return numeric value only (unit: mg/mL, not printed)

May I ask what solubility has been recorded for "CN(C)[C@@H](CCOc1cccc2ccccc12)c1ccccc1" ?
35.6
